- assayExplanation: M. tuberculosis growth inhibition, HTS (AID 449762);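 note: bacterial growth assessed after seven days of incubation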
- conditionInfo: M. tuberculosis H37Rv growth inhibition, 7H9 media; at 25 µM; stronger effect = higher value
The whole screen tested about 330,000 compounds, of which about 1,900 (0.58%) were called active. Another 4% or so got no clear call; they are omitted. Not all results are given here. Entries with a potency or affinity are not part of this list.
Recorded measurements of inhibition, one per entry

[
  {
    "molecule": "CC(=O)Nc1cccc(NC(=O)C2C3C=CC(C3)C2C(=O)O)c1 (configuration not stated)",
    "inhibition (%)": 1.17
  },
  {
    "molecule": "COc1ccc(NS(=O)(=O)c2cccc(C(=O)NCc3ccccn3)c2)cc1",
    "inhibition (%)": -5.64
  },
  {
    "molecule": "CCOCC(=O)N1CCC(Cc2ccccc2)CC1",
    "inhibition (%)": 12.3
  },
  {
    "molecule": "CC1=C(C(=O)OCC2CCCO2)C(c2ccc(C)cc2)C2=C(CCCC2=O)N1 (configuration not stated)",
    "inhibition (%)": -4.69
  },
  {
    "molecule": "CN(C(=O)CSC1=Nc2ccccc2C2=NC(c3ccccc3)C(=O)N12)C1CCCCC1 (configuration not stated)",
    "inhibition (%)": -5.75
  },
  {
    "molecule": "CCOc1ccc(/C=C2\\SC(=S)N(N3C(=O)C4CC4C3=O)C2=O)cc1 (configuration not stated)",
    "inhibition (%)": -8.07
  },
  {
    "molecule": "COCc1c(C(=O)N/N=C(/C)c2cccs2)nnn1-c1nonc1N",
    "inhibition (%)": -8.26
  },
  {
    "molecule": "CCOC(=O)Nc1ccc(C)cc1Br",
    "inhibition (%)": -1.99
  },
  {
    "molecule": "CCOC(=O)C(=O)N1CCC(Cc2ccccc2)CC1",
    "inhibition (%)": 1.59
  },
  {
    "molecule": "CC(C)CC1Nc2ccc(C(=O)NCCCN3CCOCC3)cc2NC1=O (configuration not stated)",
    "inhibition (%)": 7.57
  },
  {
    "molecule": "CCc1nc(-c2ccc(-c3ccc(OC)cc3)nc2OC)no1",
    "inhibition (%)": 68.2
  },
  {
    "molecule": "CCC1=C(OC(=O)N(CC)CC)N2C(=O)OC(=NCCc3c[nH]c4ccccc34)[C@]2(Cc2ccccc2)[C@H]2C1=CC[C@H]1C(=O)N(CC)C(=O)[C@H]12",
    "inhibition (%)": -7.04
  },
  {
    "molecule": "O=C1CCCC(=O)N1c1ccc(F)cc1",
    "inhibition (%)": -3.22
  },
  {
    "molecule": "NC(=O)CSC1=Nc2ccccc2C2=NC(c3ccccc3)C(=O)N12 (configuration not stated)",
    "inhibition (%)": 4.02
  },
  {
    "molecule": "Cc1ccc(C)c(N2C(=O)CC(N3CCN(Cc4ccc5c(c4)OCO5)CC3)C2=O)c1 (configuration not stated)",
    "inhibition (%)": -6.64
  },
  {
    "molecule": "COc1ccc(NC(=O)CN(C)C(=O)COc2ccccc2Cc2ccccc2)cc1",
    "inhibition (%)": 10.9
  },
  {
    "molecule": "CC[C@H](C)[C@@H](CNC)NC[C@@H](Cc1ccc(O)cc1)NCC(C)(C)C",
    "inhibition (%)": -12.2
  },
  {
    "molecule": "COc1ccc(NC(=O)N(C)C[C@H]2Oc3ccc(NC(=O)Cc4ccccc4)cc3C(=O)N([C@H](C)CO)C[C@@H]2C)cc1",
    "inhibition (%)": -4.97
  },
  {
    "molecule": "CN(C)c1ccc(NC(=O)c2ccncc2)c2ccccc12",
    "inhibition (%)": -1.45
  },
  {
    "molecule": "CCc1cc(C(=O)Nc2ccccc2)cs1",
    "inhibition (%)": -4.05
  },
  {
    "molecule": "CCNC(=O)C(Cc1ccccc1)NC(=O)OCc1ccccc1 (configuration not stated)",
    "inhibition (%)": -4.3
  },
  {
    "molecule": "COc1ccc(C(C(=O)NC2CCCC2)N(Cc2ccco2)C(=O)c2snc(C(N)=O)c2N)cc1OC (configuration not stated)",
    "inhibition (%)": 3.33
  }
]

###

- assayExplanation: M. tuberculosis growth inhibition, HTS (AID 449762);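 note: bacterial growth assessed after seven days of incubation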
- conditionInfo: M. tuberculosis H37Rv growth inhibition, 7H9 media; at 25 µM; stronger effect = higher value
About 1,900 (0.58%) of roughly 330,000 compounds were called active. Another 4% or so got no clear call; they are omitted. These entries were drawn from the full list. Potency and affinity values are given separately.
recordedEndpoint: inhibition (%)

[
  {
    "compound": "COc1ccc(C(C)=O)cc1COC(=O)c1cc2ccccc2cc1O",
    "observedMeasurement": -1.43
  },
  {
    "compound": "COc1ccc(C(=O)C2CCN(C(=S)NCC3CCCO3)CC2)cc1 (stereo unspecified)",
    "observedMeasurement": 0.55
  },
  {
    "compound": "COc1ccc(C(=S)N2CCC(C(N)=O)CC2)cc1Br",
    "observedMeasurement": -5.29
  },
  {
    "compound": "Cc1ccc(S(=O)(=O)NC(CC(C)C)C(=O)N2CCCC2)cc1 (stereo unspecified)",
    "observedMeasurement": -3.51
  },
  {
    "compound": "CCOc1ccc(-c2cc(N)n(S(=O)(=O)c3cccc4nsnc34)n2)cc1",
    "observedMeasurement": -2.37
  },
  {
    "compound": "Nc1nc2sc3c(c2c(=O)s1)CCCC3",
    "observedMeasurement": -5.9
  },
  {
    "compound": "COc1ccc2c(c1OC)C(=O)N1c3ccccc3COC21 (stereo unspecified)",
    "observedMeasurement": -4.65
  },
  {
    "compound": "COc1ccc(C(C)=O)cc1COC(=O)c1cc(C)nc2ccccc12",
    "observedMeasurement": 11.9
  },
  {
    "compound": "CC(=O)Nc1ccc(S(=O)(=O)N[C@@H](C)C(=O)N2CCN(C/C=C/c3ccccc3)CC2)cc1",
    "observedMeasurement": -13.2
  },
  {
    "compound": "CN(c1ccccc1)S(=O)(=O)c1ccc(C(=O)OCC(=O)NCc2cccs2)cc1",
    "observedMeasurement": -2.53
  },
  {
    "compound": "Cc1nc2c(cc1NC(=O)C(C)(C)C)nc(C)n2Cc1ccccc1",
    "observedMeasurement": -8.25
  }
]
